- Study Target: FGFR3 (Homo sapiens (Human), UniProt P22607)
- Test: Kinase binding assay (kinase-tagged T7 phage, liganded affinity beads, qPCR)
- Particulars: binding constant; 0.9% DMSO
Assay Readout: Kd (nM)
Give the quantity in nM, number only.

// solved cases for Kd follow
| Compound | Assay Readout | Result Value |
| --- | --- | --- |
| C[C@@H](Oc1ccc2[nH]nc(-c3ccc(N=S4(=O)CCCC4)nc3)c2c1)c1c(Cl)cncc1Cl [Example 32] | Kd | 1.9 |
| CC(Oc1ccc2[nH]nc(-c3cccc(N=S(C)(C)=O)c3)c2c1)c1c(Cl)cncc1Cl (stereo not shown) [Example 1] | Kd | 76 |
| CC(Oc1ccc2[nH]nc(C(=O)Nc3ccc(S(C)(=N)=O)nc3)c2c1)c1c(Cl)cncc1Cl (stereo not shown) [Example 6] | Kd | 47 |

Kindly review the next compound as well.
The reported Kd value, FGFR3 (Homo sapiens (Human), UniProt P22607), for CC(Oc1ccc2[nH]nc(-c3cccc(S(C)(=N)=O)c3)c2c1)c1c(Cl)cncc1Cl (stereo not shown) [Example 2] reads 120

###

- Study Target: FGFR1 (Homo sapiens (Human))
- Sequence (P11362 22-822): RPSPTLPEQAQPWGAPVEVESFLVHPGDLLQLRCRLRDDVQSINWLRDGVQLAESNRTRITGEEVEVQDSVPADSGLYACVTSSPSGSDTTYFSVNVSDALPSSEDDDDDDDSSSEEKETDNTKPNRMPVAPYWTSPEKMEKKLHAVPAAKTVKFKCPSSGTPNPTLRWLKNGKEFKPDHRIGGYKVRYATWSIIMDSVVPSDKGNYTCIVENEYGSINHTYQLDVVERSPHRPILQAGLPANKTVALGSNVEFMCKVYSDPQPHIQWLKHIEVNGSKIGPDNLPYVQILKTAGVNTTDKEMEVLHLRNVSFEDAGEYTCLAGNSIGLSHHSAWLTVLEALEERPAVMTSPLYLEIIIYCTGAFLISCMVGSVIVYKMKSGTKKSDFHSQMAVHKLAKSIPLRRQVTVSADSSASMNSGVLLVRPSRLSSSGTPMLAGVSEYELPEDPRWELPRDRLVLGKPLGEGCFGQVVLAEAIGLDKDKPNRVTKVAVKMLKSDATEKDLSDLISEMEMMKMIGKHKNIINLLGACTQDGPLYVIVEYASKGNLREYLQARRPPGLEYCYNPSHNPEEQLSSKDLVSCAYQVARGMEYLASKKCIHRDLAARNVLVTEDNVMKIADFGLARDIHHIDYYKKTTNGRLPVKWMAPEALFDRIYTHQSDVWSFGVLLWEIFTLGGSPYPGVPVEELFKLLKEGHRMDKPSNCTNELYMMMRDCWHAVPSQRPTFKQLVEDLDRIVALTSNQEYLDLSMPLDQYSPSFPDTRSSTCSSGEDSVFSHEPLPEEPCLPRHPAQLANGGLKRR
- Test: Kinase binding assay (kinase-tagged T7 phage, liganded affinity beads, qPCR)
- Particulars: binding constant; 0.9% DMSO
Assay Readout: Kd (nM)
Give the quantity in nM, number only.

// solved cases for Kd follow
| Molecule | Kd [nM] |
| --- | --- |
| CC(Oc1ccc2[nH]nc(-c3cccc(S(C)(=N)=O)c3)c2c1)c1c(Cl)cncc1Cl (stereo not shown) [Example 2] | 1200 |
| C[C@@H](Oc1ccc2[nH]nc(-c3ccc(N=S4(=O)CCCC4)nc3)c2c1)c1c(Cl)cncc1Cl [Example 32] | 14 |
| CC(Oc1ccc2[nH]nc(-c3cccc(N=S(C)(C)=O)c3)c2c1)c1c(Cl)cncc1Cl (stereo not shown) [Example 1] | 770 |

Item: CC(Oc1ccc2[nH]nc(C(=O)Nc3ccc(S(C)(=N)=O)nc3)c2c1)c1c(Cl)cncc1Cl (stereo not shown) [Example 6] | Kd: 260

###

- Study Target: FGFR3-BAIAP2L1 Ba/F3 cells
- Sequence (P22607 23-806 limits assumed, change not shown): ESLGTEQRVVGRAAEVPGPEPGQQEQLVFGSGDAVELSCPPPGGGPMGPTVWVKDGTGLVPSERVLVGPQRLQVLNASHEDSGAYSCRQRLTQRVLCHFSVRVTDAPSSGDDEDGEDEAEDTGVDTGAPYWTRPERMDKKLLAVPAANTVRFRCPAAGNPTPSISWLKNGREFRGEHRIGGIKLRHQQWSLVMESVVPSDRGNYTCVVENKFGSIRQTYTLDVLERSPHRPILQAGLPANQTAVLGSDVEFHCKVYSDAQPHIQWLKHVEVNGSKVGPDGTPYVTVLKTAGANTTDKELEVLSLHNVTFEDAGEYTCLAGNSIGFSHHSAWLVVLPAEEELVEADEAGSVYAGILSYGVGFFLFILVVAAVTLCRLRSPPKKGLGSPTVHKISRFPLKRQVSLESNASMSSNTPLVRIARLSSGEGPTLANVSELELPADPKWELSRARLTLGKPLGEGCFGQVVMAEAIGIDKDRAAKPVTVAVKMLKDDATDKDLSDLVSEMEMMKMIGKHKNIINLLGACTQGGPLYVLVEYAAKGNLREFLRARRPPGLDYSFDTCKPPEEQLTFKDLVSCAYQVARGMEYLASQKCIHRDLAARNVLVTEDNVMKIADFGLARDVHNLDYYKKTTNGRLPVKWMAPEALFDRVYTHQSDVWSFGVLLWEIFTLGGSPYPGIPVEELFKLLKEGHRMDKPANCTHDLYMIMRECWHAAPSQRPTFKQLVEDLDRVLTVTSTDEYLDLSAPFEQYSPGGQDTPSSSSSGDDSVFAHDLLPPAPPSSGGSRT
Assay Readout: IC50

The reported IC50 value, FGFR3-BAIAP2L1 Ba/F3 cells, for C[C@@H](Oc1ccc2[nH]nc(-c3cnc(N=S(C)(C)=O)nc3)c2c1)c1c(Cl)cncc1Cl [Example 26] reads 0.018 µM
